- System: Wolbachia pipientis
- protocol notes: Anti-Wolbachia Cell-Based Screen
- Type: functional
- Set-up: scale not given: in the data most compounds retested in dose-response had high values
- condition set: 5 µM
About 13,000 (27%) of roughly 48,000 compounds showed an effect of 50% or more. This is one part of the list.
metric: Percent Effect (%)

COc1ccc(C[C@H]2CN(c3cc(OC)ncn3)CC[C@@H]2OC)cc1.O=C(O)C(F)(F)F :: -9.694
COc1cc(N2CC[C@H]3O[C@@H](C(=O)NC4CCCC4)CC[C@H]32)ncn1.O=C(O)C(F)(F)F :: 90.73
COc1cc(N2CC[C@@H]3O[C@H](C(=O)N(C)C)C[C@@H]32)ncn1.O=C(O)C(F)(F)F :: 99.56

====

- Tested on: Wolbachia pipientis
- protocol notes: Anti-Wolbachia Cell-Based Screen
- Assay type: functional
- Set-up: scale not given: in the data most compounds retested in dose-response had high values
- condition set: 5 µM
In all, about 48,000 compounds went through this assay and about 13,000 (27%) showed an effect of 50% or more. The list shows a part of the results.
Listed here: items and their measured Percent Effect.
metric: Percent Effect

CN(C)CC1(O)CCN(C(=O)c2cnc(-c3cccnc3)nc2)C1 (stereo not given) :: -2.107%
CC(C)N1CCc2c(c(COc3cccnc3)nn2CC2CC2)C1.O=C(O)C(F)(F)F.O=C(O)C(F)(F)F.O=C(O)C(F)(F)F :: -5.827%
CN(C)CC1(O)CCCN(C(=O)c2ccccc2-n2cncn2)C1 (stereo not given) :: -6.613%
O=C1OCCN1CC(=O)N1C[C@H]2CC[C@@H]1CN(C(=O)c1cccnc1)C2 :: -9%
CN(Cc1ccc(F)cc1)CC1(O)CCN(C(=O)c2ccccc2)C1 (stereo not given) :: -10.29%

====

- Test system: Wolbachia pipientis
- protocol notes: Anti-Wolbachia Cell-Based Screen
- Type: functional
- Parameters: scale not given: in the data most compounds retested in dose-response had high values
- condition set: 5 µM
Out of some 48,000 compounds screened, about 13,000 (27%) showed an effect of 50% or more. This is one part of the list.
Percent Effect by entry:
metric: Percent Effect

Nc1nc2nc(C3CCCN(C(=O)c4cnccn4)C3)ccc2s1 (stereo not drawn) :: 126%
CC(C)NC(=O)[C@@H]1C[C@@H]2CCN(Cc3ccoc3)C[C@H]2O1.O=C(O)C(F)(F)F :: 74.8%
O=C(O)c1nnn(Cc2ccc(F)cc2)c1-c1cccnc1 :: 3.102%
CNC(=O)CN1CCO[C@H]2CN(CC3CCOCC3)C[C@H]21.O=C(O)C(F)(F)F.O=C(O)C(F)(F)F :: -17.71%
CCN(CCc1nc2cc(C)ccc2[nH]1)C(=O)[C@@H](N)CCSC :: 1.745%
COc1ccc(OCC(=O)NS(=O)(=O)c2cc(F)ccc2F)cc1 :: 18.57%
Cn1cc(CN2C[C@@H]3OCCN(CC4CCCC4)[C@@H]3C2)cn1 :: -2.926%
COCc1nc(C(=O)NS(=O)(=O)c2ccc(OC)c(C)c2)cs1 :: -15.7%
O=C(NCC1CC1)C1CN(C(=O)Cc2cccs2)CC12CCOCC2 (stereo not drawn) :: 5.816%
CCn1cnnc1CNC(=O)N1CCN(c2ccccc2O)CC1 :: 92.65%
O=C(Cn1cccnc1=O)NC(Cc1ccsc1)c1cccnc1 (stereo not drawn) :: 105%
O=C(O)C(F)(F)F.O=C([C@@H]1C[C@@H]2CCN(Cc3ccoc3)C[C@H]2O1)N1CCCC1 :: 103.1%
CC(C)(C)CC(=O)N[C@@H]1CO[C@H](CNC(=O)c2ccncc2)[C@H]1O :: -7.962%
CCOc1cccc(CCNC(=O)Cc2ccccc2O)n1 :: -26.19%
NC(=O)C(NC(=O)COC1CCCCC1)c1ccccc1 (stereo not drawn) :: -9.016%
Cc1cc(C2CCCN(C(=O)CCc3cscn3)C2)n[nH]1 (stereo not drawn) :: 93.55%
Cc1cccc(N2CCN(C(=O)Nc3cnn(CC(N)=O)c3)CC2)c1 :: -8.219%
Nc1nc2nc(C3CCCN(C(=O)c4cncs4)C3)ccc2s1 (stereo not drawn) :: 108.5%
O=C(O)C(F)(F)F.c1cnc(N2CCO[C@H]3CN(Cc4csnn4)C[C@H]32)cn1 :: 6.84%
COc1ccccc1CN1CC[C@H]2C[C@@H](C(=O)N3CCCC3)O[C@H]2C1.O=C(O)C(F)(F)F :: 2.639%
O=C(O)C(F)(F)F.c1cnc(N2CCO[C@H]3CN(CC4CCOC4)C[C@H]32)cn1 (stereo partly drawn) :: 122.8%
O=C(NC1CC1)[C@@H]1C[C@@H]2CCN(Cc3ccccc3)C[C@@H]2O1.O=C(O)C(F)(F)F :: -0.7056%
O=C(NC1CCCC1)[C@@H]1C[C@@H]2CCN(Cc3ccoc3)C[C@H]2O1.O=C(O)C(F)(F)F :: 111.5%
CCn1cnnc1CNC(=O)N1CCN(c2ccc(OC)cc2)CC1 :: 88.94%
O=C(NCC1CC1)C1CN(C(=O)c2ccncc2)CC12CCOCC2 (stereo not drawn) :: -0.9426%
Cc1csc(C(Cc2ccsc2)NC(=O)Cn2cccnc2=O)n1 (stereo not drawn) :: 109.1%
CN(C)C(=O)Cc1ccccc1NCc1nc(Cc2ccccc2)no1 :: 16.45%
CN(CCCN1CCCC1)[C@@H]1c2ccccc2C2(CCNCC2)[C@H]1O :: 1.656%
COCC(=O)N1CC(C(=O)NCC2CC2)C2(CCOCC2)C1 (stereo not drawn) :: 104.6%
CC(C)Cn1cnc(S(=O)(=O)Nc2cccnc2-n2cccn2)c1 :: -21.79%
O=C(Cn1cccnc1=O)NC(Cc1ccsc1)c1nccs1 (stereo not drawn) :: 149.8%
N#Cc1cccnc1N1CCC(c2nc(C(F)(F)F)c[nH]2)CC1 :: -10.33%
Cc1ccccc1CSc1nc(N)cc(N2CCCC(C(N)=O)C2)n1 (stereo not drawn) :: -15%
Nc1nc2nc(C3CCN(C(=O)c4cscn4)C3)ccc2s1 (stereo not drawn) :: 104%
CN(C)C(=O)N1CC(C(=O)NCC2CC2)C2(CCOCC2)C1 (stereo not drawn) :: 105.7%
c1cnc(N2CCO[C@H]3CN(CC4CCCC4)C[C@H]32)cn1 :: 112.8%
O=C(NC1CCC1)[C@@H]1C[C@@H]2CCN(CCc3ccccc3)C[C@H]2O1.O=C(O)C(F)(F)F :: 2.186%
CC(C)NC(=O)C1CN(C(=O)N(C)C)CC12CCOCC2 (stereo not drawn) :: 94.32%
CC(C)NC(=O)C1CN(C(=O)Nc2ccccc2)CC12CCOCC2 (stereo not drawn) :: 0.6544%
CN(C)c1nccc(N2CCO[C@H]3CN(CC4CCOCC4)C[C@H]32)n1 :: 11.02%
O=C(Cn1cccnc1=O)NCC1Cc2ccccc2O1 (stereo not drawn) :: -8.588%
O=C(Cn1cccnc1=O)NCc1cccnc1OCC(F)(F)F :: 2.082%
Cc1ccccc1CSc1ncc(Br)c(C(=O)O)n1 :: 130.2%

====

- Test system: Wolbachia pipientis
- protocol notes: Anti-Wolbachia Cell-Based Screen
- Type: functional
- Parameters: scale not given: in the data most compounds retested in dose-response had high values
- condition set: 5 µM
About 13,000 (27%) of roughly 48,000 compounds showed an effect of 50% or more. This is one part of the list.
metric: Percent Effect (%)

FC(F)(F)c1nc(NC2CCCCC2)c2ccccc2n1 :: 111.5
C1CC(c2noc(C3CC3)n2)CN(CCOCC2CC2)C1 (stereo not drawn) :: 14.88
O=C1CCOC[C@]2(CN(Cc3ccccc3)C[C@H]2c2ccccc2)N1 :: 85.32
Cc1ccc(NC2CCN(C(=O)c3sccc3C3CC3)CC2)nn1 :: 97.28
Cc1cc2ncc(C(C)NCc3cccnc3)c(C)n2n1 (stereo not drawn) :: 0.9631
O=C(NCCC(=O)N1CCCc2ccccc21)c1cc(F)cc(F)c1 :: 126.9
CCc1nc(NC(=O)NCCc2cccc(C)n2)nn1C :: -4.482
CCCc1cc(=O)[nH]c2nnc(SCC(=O)NCCc3ccccc3)n12 :: 12.93
CC(=O)CCC(=O)N1CCC2(CC1)N=C(CCC(C)C)NC2=O :: -5.676
Cc1ccc(NC2CCN(C(=O)c3ccco3)CC2)nn1 :: 66.81
Cn1cc(CCNC(=O)N2CCCc3c(F)cccc32)cn1 :: -24.48
Cc1c(CN2CCCCC2)c(O)n(CCCO)c(=O)c1C#N :: 106.4
FC(F)(F)c1nc(NC2CCCC2)c2ccccc2n1 :: 1.763
O=C(c1ccsc1)N1CC(c2nc(-c3ccc[nH]c3=O)no2)C1 :: -1.062
Cn1c(NCC(=O)N2CCCCC2)c(C#N)c(=O)n(C)c1=O :: -4.549
O=C1NC[C@@]2(C(=O)O)CN(Cc3ccc(Oc4ccccc4)cc3)C[C@@H]12 :: 22.58
O=C(NCCC(=O)N1CCCc2ccccc21)c1c(F)cccc1F :: 120
Cc1ccc(NS(=O)(=O)c2cnn(Cc3ccccc3)c2)c(C(=O)O)c1 :: 100.3
O=C1NC2(CCN(C(=O)c3ccc(Cl)cn3)CC2)CC1c1ccccc1 (stereo not drawn) :: -25.51
O=C1NC2(CCN(Cc3cccnc3)CC2)CC1c1ccncc1 (stereo not drawn) :: -17.77
O=C(COC1CCCCC1)Nc1ccn(Cc2cccnc2)n1 :: 3.333
Cc1ccc(NC2CCN(C(=O)c3ccsc3)CC2)nn1 :: -4.871
O=C(NCCSC1CCCC1)c1ccc(F)cc1F :: 11.89
Cc1ccc(NC2CCN(C(=O)c3cnc(C)s3)CC2)nn1 :: -2.09
Cc1ccc(NC2CCN(C(=O)c3cccn3C)CC2)nn1 :: 4.199
NC(=O)C1CCN(Cc2ccc(S(=O)(=O)N3CCCC3)o2)CC1 :: -8.364
CCn1cc(S(=O)(=O)NC(CO)Cc2ccccc2)cn1 (stereo not drawn) :: -18.17
Cn1c(NCCN2CCCCCC2)c(C#N)c(=O)n(C)c1=O :: 6.229
Cc1cccc(NS(=O)(=O)c2cnn(C)c2)c1C#N :: -6.698
O=C(NCC(=O)N1CCCc2ccccc21)c1c(O)cc(F)cc1F :: 103.6
Cn1c(CN2CCN(CC3CC3)CC2)nnc1C1CCC1 :: -1.801
CCN1CCN(c2ccc(C(=O)NCc3cc(C)no3)cc2F)CC1 :: -18.85
Cc1oc(NC(=O)C(C)N2CCN(CCO)CC2)c(C#N)c1C (stereo not drawn) :: 14.13
O=C(NCCS(=O)(=O)N1CCc2ccccc21)c1c(O)cc(F)cc1F :: 11.09
CN(Cc1cccnc1)c1nccc(N2CCN[C@H]3CS(=O)(=O)C[C@H]32)n1 :: -2.359
CNS(=O)(=O)Cc1cccc(CNc2ccc(Cl)cn2)c1 :: 7.116
Cc1ccc(NC2CCN(C(=O)c3ccc(Cl)o3)CC2)nn1 :: -2.526
Cc1ccnc(CC(C)N(C)c2cc(CCN)nc(C)n2)c1 (stereo not drawn) :: -16.25
Cc1ccc(NC2CCN(C(=O)c3cnn(C(C)(C)C)c3)CC2)nn1 :: 89.59
CS(=O)(=O)c1ccc2c(c1)N(C(=O)c1cccc(F)c1)CCC2 :: 5.094
CCn1cc(C(=O)Nc2ccc(C)cc2C(=O)NC)cn1 :: -4.213
O=C(NCCC(=O)N1CCCc2ccccc21)c1c(O)cc(F)cc1F :: 3.729
CC(C)C(Nc1nc(C(F)(F)F)nc2ccccc12)C(=O)O (stereo not drawn) :: 2.163
CC(C)c1nc(C2CCCN2CCOCC2CC2)no1 (stereo not drawn) :: 114
CSCCCN1CCCC1c1noc(C)n1 (stereo not drawn) :: -3.652
COCCN(CCN(C)C)C(=O)NC1CC1 :: -6.538
O=C(NCCC(=O)N1CCCc2ccccc21)c1ccc(F)cc1F :: 138.5
O=C1CCOC[C@]2(CN(Cc3ccccc3)C[C@H]2c2ccccc2F)N1 :: 94.73
